The values you see were collected from ChEMBL document CHEMBL1649268.

Parameter Activity: see the listing below.
# Tested on: Staphylococcus haemolyticus
# protocol_notes: Antimicrobial activity against oxacillin-susceptible Staphylococcus haemolyticus clinical isolates assessed as resistant isolates by broth microdilution method
# Assay type: functional
# output: number + unit

Known results for compounds:
| structure_notation | measurement_type | result |
| --- | --- | --- |
| CCC[C@@H]1C[C@@H](C(=O)N[C@@H]([C@H]2O[C@H](SC)[C@H](O)[C@@H](O)[C@H]2O)[C@H](C)Cl)N(C)C1 | Activity | 2.8% |
| CN[C@H](CC(C)C)C(=O)N[C@H]1C(=O)N[C@@H](CC(N)=O)C(=O)N[C@H]2C(=O)N[C@H]3C(=O)N[C@H](C(=O)N[C@H](C(=O)O)c4cc(O)cc(O)c4-c4cc3ccc4O)[C@H](O)c3ccc(c(Cl)c3)Oc3cc2cc(c3O[C@@H]2O[C@H](CO)[C@@H](O)[C@H](O)[C@H]2O[C@H]2C[C@](C)(N)[C@H](O)[C@H](C)O2)Oc2ccc(cc2Cl)[C@H]1O | Activity | 0% |
| CC[C@H]1OC(=O)[C@H](C)[C@@H](O[C@H]2C[C@@](C)(OC)[C@@H](O)[C@H](C)O2)[C@H](C)[C@@H](O[C@@H]2O[C@H](C)C[C@H](N(C)C)[C@H]2O)[C@](C)(O)C[C@@H](C)C(=O)[C@H](C)[C@@H](O)[C@]1(C)O | Activity | 51.4% |

Let us examine a further case.
(Q) So what does the record say about Activity for Cc1onc(-c2ccccc2)c1C(=O)N[C@@H]1C(=O)N2[C@@H]1SC(C)(C)[C@@H]2C(=O)O ?
(A) 0%
